assay_protocol: Binding affinity to pig pancreatic cholesterol esterase
Design: species or system Sus scrofa
pKi: −log10 of the molar value.
pKi values by entry

Known results for compounds:
// query For the compound `CCCOc1oc(=O)c2ccccc2c1C(=O)C(F)(F)F` , report pKi.
// result < 4.60

// query State, in one line, measured pKi of `Nc1ccc2cc(OCCBr)oc(=O)c2c1`
// result < 4.00

// query Output measured pKi for this item: `COc1oc(=O)c2cc(NC(=O)c3ccccc3)ccc2c1Cl`
// result < 3.60

// query Identify pKi associated with the compound `O=c1oc(OCCC2CCCCC2)cc2ccc([N+](=O)[O-])cc12`
// result < 4.00

With those in mind, consider the next compound.
// query Give the measured pKi for `COc1oc(=O)c2cc(NC(=O)C3CCCCC3)ccc2c1Cl`
// result < 4.60
